Target: G-protein coupled bile acid receptor 1 (Homo sapiens, UniProt Q8TDU6)
Experiment: Agonist activity at human TGR5
Conditions: read-out: EC50
ASSAY_ENDPOINT: pEC50
Numbers only, as −log10 of the molar value.

pEC50 lookup needed for O=C(Nc1nnn[nH]1)c1cc(Cl)c(Oc2ncccc2C(=O)N2CCN(C3CC3)c3ccccc32)cc1Cl , thanks.
7.12

---

Can you tell me Activity for the items I'm about to list?
Biological target: G-protein coupled bile acid receptor 1 (Homo sapiens) (UniProt Q8TDU6)
Sequence (whole entry): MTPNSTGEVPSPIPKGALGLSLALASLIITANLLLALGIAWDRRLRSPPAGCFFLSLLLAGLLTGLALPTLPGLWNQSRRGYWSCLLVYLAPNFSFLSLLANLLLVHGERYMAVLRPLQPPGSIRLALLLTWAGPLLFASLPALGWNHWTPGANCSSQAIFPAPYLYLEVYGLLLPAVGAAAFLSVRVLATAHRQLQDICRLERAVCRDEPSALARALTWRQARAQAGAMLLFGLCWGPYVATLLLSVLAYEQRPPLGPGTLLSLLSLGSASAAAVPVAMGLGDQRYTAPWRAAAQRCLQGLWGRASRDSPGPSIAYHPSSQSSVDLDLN
Assay: Agonist activity at human TGR5 expressed in human HEK293 cells at 20 uM measured after 5.5 hrs by steady-glo luciferase assay relative to control
Format: cell-based
Settings: filed as agonist
Give bare numbers, in %.

The cases that follow already have their Activity on record.
COMPOUND: Fc1ccccc1-c1ccncc1CN1C(c2ccco2)=NOC1c1cc(C(F)(F)F)cc(C(F)(F)F)c1 (centres undefined)
UNIT: %
REPORTED_RESULT: 102
--
COMPOUND: Fc1ccccc1-c1ccncc1CN1C(c2ccco2)=NOC1c1cc(C(F)(F)F)cc(C(F)(F)F)c1Cl (centres undefined)
UNIT: %
REPORTED_RESULT: 90
--
COMPOUND: Fc1cccc(F)c1-c1ccncc1CN1C(c2ccco2)=NO[C@@H]1c1cc(C(F)(F)F)cc(C(F)(F)F)c1Cl
UNIT: %
REPORTED_RESULT: 96

Activity lookup needed for Fc1ccccc1-c1ccncc1CN1C(c2ccccc2)=NOC1c1cc(C(F)(F)F)cc(C(F)(F)F)c1 (centres undefined) , thanks.
93
